Tested on: Mus musculus
PROTOCOL: Analgesic activity in Mus musculus BALB/c (mouse) assessed as inhibition of acetic acid-induced writhing at 100 mg/kg, po administered 1 hr followed by acetic acid challenge measured for 10 min
Assay type: functional
Examples of compounds with documented inhibition in vivo at 100 mg/kg follow.
Only the number, expressed in %, is required.

Solved entries (count: 5):
CCOC(=O)Cc1csc2nc(-c3cc(Cl)cc(Cl)c3)nn12 | 35.9
CCOC(=O)c1sc2nc(-c3ccc(Cl)cc3)nn2c1C | 89.7
CCOC(=O)Cc1csc2nc(Cc3cc(OC)c(OC)c(OC)c3)nn12 | 62.8
CC(=O)Oc1ccccc1C(=O)O [ASPIRIN] | 50
COc1ccc(CCC2=NC(=S)N=N2)cc1 | 24.3

Lookup: Specify measured inhibition in vivo at 100 mg/kg for CCOC(=O)Cc1csc2nc(-c3ccc(OC)cc3)nn12 .
Found: 24.3

Lookup: Using the record for Sc1n[nH]c(-c2ccccc2)n1 , state its measured inhibition in vivo at 100 mg/kg.
Found: 35.9

Lookup: Give inhibition in vivo at 100 mg/kg for CCOC(=O)Cc1csc2nc(-c3ccc(Cl)cc3)nn12
Found: 38.5

Lookup: Identify measured inhibition in vivo at 100 mg/kg associated with CCOC(=O)c1sc2nc(CCc3cc(OC)c(OC)c(OC)c3)nn2c1C
Found: 85.9

----------
System: Mus musculus
PROTOCOL: Toxicity in Mus musculus BALB/c (mouse) assessed as mortality at 50 to 200 mg/kg, po after 72 hr
Assay type: organism-based
Design: dose 50-200 mg/kg, route oral
RUN_CONDITIONS: in vivo
RECORDED_ENDPOINT: Activity

Sc1n[nH]c(-c2ccccc2)n1 | Non-toxic
COc1ccc2c(c1)c(CC(=O)O)c(C)n2C(=O)c1ccc(Cl)cc1 | Non-toxic
CCOC(=O)c1sc2nc(-c3ccc(Cl)cc3)nn2c1C | Non-toxic
CCOC(=O)Cc1csc2nc(-c3cc(Cl)cc(Cl)c3)nn12 | Non-toxic
CCOC(=O)Cc1csc2nc(-c3ccc(Cl)cc3)nn12 | Non-toxic

Lookup: Specify Activity for COc1ccc(-c2nnc(S)[nH]2)cc1 , system Mus musculus.
Found: Non-toxic

Lookup: // output Activity; input CCOC(=O)Cc1csc2nc(-c3ccc(OC)cc3)nn12 ; system Mus musculus
Found: Non-toxic

Lookup: Give Activity only, for COc1ccc(CCC2=NC(=S)N=N2)cc1 , using Mus musculus data.
Found: Non-toxic

----------
System: Mus musculus
PROTOCOL: Anti-inflammatory activity in Mus musculus BALB/c (mouse) assessed as inhibition of carrageenan-induced paw swelling at 50 mg/kg, po administered 1 hr followed by carrageenan challenge measured at 360 min relative to control
Assay type: functional
RECORDED_ENDPOINT: inhibition in vivo at 50 mg/kg (%)
Provide the reading as a plain figure in %.

Sample answers from the record:
COc1ccc(CCC2=NC(=S)N=N2)cc1 | 25.5
CCOC(=O)Cc1csc2nc(Cc3cc(OC)c(OC)c(OC)c3)nn12 | 16.9
COc1cc(CCC2=NC(=S)N=N2)cc(OC)c1OC | 19.9
COc1cc(CC2=NC(=S)N=N2)cc(OC)c1OC | 26.4

Attention now shifts to the item below.
Lookup: Please indicate inhibition in vivo at 50 mg/kg recorded for Sc1n[nH]c(-c2ccccc2)n1
Found: 15.1

----------
inhibition in vivo at 100 mg/kg values by entry
Tested on: Mus musculus
PROTOCOL: Anti-inflammatory activity in Mus musculus BALB/c (mouse) assessed as inhibition of carrageenan-induced paw swelling at 100 mg/kg, po administered 1 hr followed by carrageenan challenge measured at 360 min relative to control
Assay type: functional
The reply should be a number in %, with the unit left off.

Check out these entries, answers already filled in.
CCOC(=O)c1sc2nc(-c3ccc(Cl)cc3)nn2c1C | 28.2
COc1cc(CC2=NC(=S)N=N2)cc(OC)c1OC | 38.1
CCOC(=O)Cc1csc2nc(-c3ccccc3)nn12 | 16.7
CCOC(=O)Cc1csc2nc(-c3ccc(Cl)cc3)nn12 | 33.3
CCOC(=O)Cc1csc2nc(-c3cc(Cl)cc(Cl)c3)nn12 | 42.8

Lookup: Print Mus musculus inhibition in vivo at 100 mg/kg for COc1ccc(CCC2=NC(=S)N=N2)cc1 .
Found: 23.3

Lookup: Output reported inhibition in vivo at 100 mg/kg of the molecule COc1cc(CCC2=NC(=S)N=N2)cc(OC)c1OC on Mus musculus.
Found: 38

Lookup: Specify inhibition in vivo at 100 mg/kg for CCOC(=O)c1sc2nc(CCc3cc(OC)c(OC)c(OC)c3)nn2c1C , system Mus musculus.
Found: 20.2

// data source = ChEMBL document CHEMBL3046590
